Each entry below carries its reported inhibition at 0.3 µM.
# SUBJECT OF TEST: human Kv 1.5 (Homo sapiens, UniProt P22460)
# Construct: expressed in transfected cells; host or cells: mouse L-929 fibroblasts stably expressing human Kv1.5
# Sequence (P22460 whole entry): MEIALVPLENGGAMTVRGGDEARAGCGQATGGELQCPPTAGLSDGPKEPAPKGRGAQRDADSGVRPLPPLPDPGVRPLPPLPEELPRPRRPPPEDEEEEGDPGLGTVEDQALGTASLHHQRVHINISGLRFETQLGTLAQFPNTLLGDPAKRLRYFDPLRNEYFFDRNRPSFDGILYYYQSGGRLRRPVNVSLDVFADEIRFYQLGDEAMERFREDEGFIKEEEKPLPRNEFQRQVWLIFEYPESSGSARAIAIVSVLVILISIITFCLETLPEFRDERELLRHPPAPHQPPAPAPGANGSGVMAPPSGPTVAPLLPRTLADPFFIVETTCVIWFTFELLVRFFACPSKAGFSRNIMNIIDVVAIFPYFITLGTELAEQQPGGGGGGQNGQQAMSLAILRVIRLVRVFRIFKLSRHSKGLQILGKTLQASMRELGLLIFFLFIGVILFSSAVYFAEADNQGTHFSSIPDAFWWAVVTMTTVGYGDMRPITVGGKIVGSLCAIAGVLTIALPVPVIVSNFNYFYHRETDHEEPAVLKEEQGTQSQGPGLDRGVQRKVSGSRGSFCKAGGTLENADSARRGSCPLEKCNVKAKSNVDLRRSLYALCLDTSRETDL
# ASSAY DETAILS: Block of IKur current in patch clamped L-929 cells stably expressing human Kv1.5
# Format: cell-based
# CONDITION PARAMETERS: L929, 0.3 μM; patch clamped mammalian L-929 cells expressing human Kv1.5 (IKur); read-out: KV1_5% Inh L929 @0.3 μM

Some solved cases for reference:
CHEM SMILES: CS(=O)(=O)N(c1cncc(-c2cc3cccc(-c4ccccc4)c3c(NCc3ccccn3)n2)c1)S(C)(=O)=O
RECORDED METRIC: inhibition at 0.3 µM
OBSERVED: 70.7%
//
CHEM SMILES: Cc1nc(NCc2ccccc2)c2c(-c3ccccc3)cccc2c1-c1cncc(S(N)(=O)=O)c1
RECORDED METRIC: inhibition at 0.3 µM
OBSERVED: 93.2%
//
CHEM SMILES: NS(=O)(=O)c1cncc(-c2cc3cccc(-c4ccccc4)c3c(NCc3ccccn3)n2)c1
RECORDED METRIC: inhibition at 0.3 µM
OBSERVED: 95.1%
//
CHEM SMILES: NS(=O)(=O)c1cncc(-c2cc3cccc(-c4ccccc4)c3c(NCc3csc(-c4ccccc4)n3)n2)c1
RECORDED METRIC: inhibition at 0.3 µM
OBSERVED: 16.1%

Task item: Param item = c1ccc(CNc2ncc(-c3cncc(-c4nn[nH]n4)c3)c3cccc(-c4ccccc4)c23)cc1 ; retrieve measured inhibition at 0.3 µM.
Reply: 90%

Task item: What measured inhibition at 0.3 µM goes with NS(=O)(=O)c1cncc(-c2c(Cl)nc(NCC3CCOCC3)c3c(-c4ccccc4)cccc23)c1 ?
Reply: 88.4%

###

Catalogue of inhibition at 0.3 µM readings, one per entry.
# SUBJECT OF TEST: human Kv 1.5 (Homo sapiens)
# Construct: expressed in transfected cells; host or cells: mouse L-929 fibroblasts stably expressing human Kv1.5
# ASSAY DETAILS: Block of IKur current in patch clamped L-929 cells stably expressing human Kv1.5
# Format: cell-based
# CONDITION PARAMETERS: L929, 0.3 μM; patch clamped mammalian L-929 cells expressing human Kv1.5 (IKur); read-out: KV1_5% Inh L929 @0.3 μM
Field: numeric (%). Do not append units.

Illustrative cases are given below, each with its answer.
COMPOUND: CC(=O)Nc1ccc(-c2cc3cccc(-c4ccccc4)c3c(NCc3ccccn3)n2)cn1 [Example 64]
SUBJECT OF TEST: human Kv 1.5 (Homo sapiens)
READING UNIT: %
inhibition at 0.3 µM: 57.5
--
COMPOUND: c1ccc(-c2cccc3cc(-c4cc[nH]n4)nc(NCc4ccccn4)c23)cc1 [Example 23]
SUBJECT OF TEST: human Kv 1.5 (Homo sapiens)
READING UNIT: %
inhibition at 0.3 µM: 80.2
--
COMPOUND: N#Cc1cccc(-c2cc3cccc(-c4ccccc4)c3c(NCc3ccccn3)n2)c1 [Example 39]
SUBJECT OF TEST: human Kv 1.5 (Homo sapiens)
READING UNIT: %
inhibition at 0.3 µM: 66.8
--
COMPOUND: NS(=O)(=O)c1cncc(-c2cc3cccc(-c4ccc(F)cc4)c3c(NCc3ccccn3)n2)c1 [Example 21]
SUBJECT OF TEST: human Kv 1.5 (Homo sapiens)
READING UNIT: %
inhibition at 0.3 µM: 50.6
--
COMPOUND: CC(=O)Nc1ccc(-c2cc3cccc(-c4ccccc4)c3c(NCc3ccccn3)n2)cc1 [Example 31]
SUBJECT OF TEST: human Kv 1.5 (Homo sapiens)
READING UNIT: %
inhibition at 0.3 µM: 15.2

Now take the following compound into account.
Task item: Record request: inhibition at 0.3 µM value, item NC(=O)c1cccc(-c2cc3cccc(-c4ccccc4)c3c(NCc3ccccn3)n2)c1 [Example 41]
Reply: 54.1

###

# SUBJECT OF TEST: human Kv 1.5 (Homo sapiens, UniProt P22460)
# Construct: expressed in transfected cells; host or cells: mouse L-929 fibroblasts stably expressing human Kv1.5
# ASSAY DETAILS: Block of IKur current in patch clamped L-929 cells stably expressing human Kv1.5
# Type: cell-based
# CONDITION PARAMETERS: L929, 0.3 μM; patch clamped mammalian L-929 cells expressing human Kv1.5 (IKur); read-out: KV1_5% Inh L929 @0.3 μM
The following compounds are listed with their measured inhibition at 0.3 µM values.
// return the numeric value with its unit appended

CHEM SMILES: N#Cc1ccc(-c2c(Cl)nc(NCc3ccccn3)c3c(-c4ccccc4)cccc23)cc1
SUBJECT OF TEST: human Kv 1.5 (Homo sapiens, UniProt P22460)
inhibition at 0.3 µM: 89.7%
//
CHEM SMILES: Cc1n[nH]c(C)c1-c1cc2cccc(-c3ccccc3)c2c(NCc2ccccn2)n1
SUBJECT OF TEST: human Kv 1.5 (Homo sapiens, UniProt P22460)
inhibition at 0.3 µM: 64.5%
//
CHEM SMILES: Cc1ccccc1CNc1nc(-c2cncc(S(N)(=O)=O)c2)cc2cccc(-c3ccccc3)c12
SUBJECT OF TEST: human Kv 1.5 (Homo sapiens, UniProt P22460)
inhibition at 0.3 µM: 78.5%

Here is the next item to consider.
Task item: Quick one: inhibition at 0.3 µM for NS(=O)(=O)c1ccccc1-c1cc2cccc(-c3ccccc3)c2c(NCc2ccccn2)n1 ?
Reply: 50.5%

###

# SUBJECT OF TEST: human Kv 1.5 (Homo sapiens)
# Construct: expressed in transfected cells; host or cells: mouse L-929 fibroblasts stably expressing human Kv1.5
# ASSAY DETAILS: Block of IKur current in patch clamped L-929 cells stably expressing human Kv1.5
# Type: cell-based
# CONDITION PARAMETERS: L929, 0.3 μM; patch clamped mammalian L-929 cells expressing human Kv1.5 (IKur); read-out: KV1_5% Inh L929 @0.3 μM
Where inhibition at 0.3 µM equals or exceeds 90%, the correct label is label 1; where it does not, the label is label 0.

Consider the following illustrative entries.
COMPOUND: CS(=O)(=O)Nc1ccc(-c2cc3cccc(-c4ccccc4)c3c(NCc3ccccn3)n2)cn1 [Example 63]
ASSIGNED CATEGORY: label 0
--
COMPOUND: NC(=O)c1nc(NCc2ccccc2)c2c(-c3ccccc3)cccc2c1-c1cncc(S(N)(=O)=O)c1 [Example 17]
ASSIGNED CATEGORY: label 1
--
COMPOUND: NC(=O)c1ccc(-c2c(Cl)nc(NCc3ccccn3)c3c(-c4ccccc4)cccc23)cc1 [Example 57]
ASSIGNED CATEGORY: label 1

Task item: Could you verify whether the entry Nc1ccc(-c2c(Cl)nc(NCc3ccccn3)c3c(-c4ccccc4)cccc23)cn1 [Example 77] shows inhibition at 0.3 µM of no less than 90%?
Reply: label 1

Task item: # check: inhibition at 0.3 µM of NS(=O)(=O)c1cccc(-c2cnc(NCc3ccccn3)c3c(-c4ccccc4)cccc23)c1 [Example 85] is greater than or equal to 90%
Reply: label 1

Task item: Item CS(=O)(=O)Nc1ccc(-c2c(Cl)nc(NCc3ccccn3)c3c(-c4ccccc4)cccc23)cc1 [Example 69] with inhibition at 0.3 µM of 90% or above?
Reply: label 1

Task item: Evaluate NC(=O)Nc1cncc(-c2c(Cl)nc(NCc3ccccn3)c3c(-c4ccccc4)cccc23)c1 [Example 48] : inhibition at 0.3 µM at minimum 90%?
Reply: label 1

Task item: Is it the case that CC(=O)Nc1ccccc1-c1cc2cccc(-c3ccccc3)c2c(NCc2ccccn2)n1 [Example 30] has inhibition at 0.3 µM reaching or exceeding 90%?
Reply: label 0

Task item: Does the reported inhibition at 0.3 µM for NS(=O)(=O)Nc1ccccc1-c1cc2cccc(-c3ccccc3)c2c(NCc2ccccn2)n1 [Example 51] fall at or above the 90% mark?
Reply: label 0

###

# SUBJECT OF TEST: human Kv 1.5 (Homo sapiens)
# Construct: expressed in transfected cells; host or cells: mouse L-929 fibroblasts stably expressing human Kv1.5
# ASSAY DETAILS: Block of IKur current in patch clamped L-929 cells stably expressing human Kv1.5
# Type: cell-based
# CONDITION PARAMETERS: L929, 0.3 μM; patch clamped mammalian L-929 cells expressing human Kv1.5 (IKur); read-out: KV1_5% Inh L929 @0.3 μM
Use true when the recorded inhibition at 0.3 µM is no lower than 80%; use false when it is lower.

The following compounds have reported results that may help.
COMPOUND: CS(=O)(=O)Nc1cccc(-c2c(Cl)nc(NCc3ccccn3)c3c(-c4ccccc4)cccc23)c1
ASSIGNED CATEGORY: true
--
COMPOUND: Clc1nc(NCc2ccccc2)c2c(-c3ccccc3)cccc2c1C1=CCOCC1
ASSIGNED CATEGORY: false
--
COMPOUND: NS(=O)(=O)c1cncc(-c2cnc(NCC3CCCCO3)c3c(-c4ccccc4)cccc23)c1 (centres unmarked)
ASSIGNED CATEGORY: true
--
COMPOUND: NS(=O)(=O)c1cncc(-c2cc3cccc(-c4ccccc4)c3c(N[C@H]3CCN(Cc4ccccc4)C3)n2)c1
ASSIGNED CATEGORY: false
--
COMPOUND: CC(C)CNc1nc(-c2cncc(S(N)(=O)=O)c2)cc2cccc(-c3ccccc3)c12
ASSIGNED CATEGORY: false
--
COMPOUND: NS(=O)(=O)Nc1cncc(-c2cc3cccc(-c4ccccc4)c3c(NCc3ccccn3)n2)c1
ASSIGNED CATEGORY: false

Task item: # bool: inhibition at 0.3 µM of N#Cc1cccc(-c2c(Cl)nc(NCc3ccccn3)c3c(-c4ccccc4)cccc23)c1 >= 80%
Reply: true

Task item: Identify whether the reported inhibition at 0.3 µM of the following compound is 80% or greater: NS(=O)(=O)c1ccc(-c2c(Cl)nc(NCc3ccccn3)c3c(-c4ccccc4)cccc23)cc1
Reply: true
